The origin of these recorded values is patent US9580390B2.

Target: JNK3 (Homo sapiens, UniProt P53779)
Construct: purchased Millipore Corporation
Sequence (P53779 whole entry): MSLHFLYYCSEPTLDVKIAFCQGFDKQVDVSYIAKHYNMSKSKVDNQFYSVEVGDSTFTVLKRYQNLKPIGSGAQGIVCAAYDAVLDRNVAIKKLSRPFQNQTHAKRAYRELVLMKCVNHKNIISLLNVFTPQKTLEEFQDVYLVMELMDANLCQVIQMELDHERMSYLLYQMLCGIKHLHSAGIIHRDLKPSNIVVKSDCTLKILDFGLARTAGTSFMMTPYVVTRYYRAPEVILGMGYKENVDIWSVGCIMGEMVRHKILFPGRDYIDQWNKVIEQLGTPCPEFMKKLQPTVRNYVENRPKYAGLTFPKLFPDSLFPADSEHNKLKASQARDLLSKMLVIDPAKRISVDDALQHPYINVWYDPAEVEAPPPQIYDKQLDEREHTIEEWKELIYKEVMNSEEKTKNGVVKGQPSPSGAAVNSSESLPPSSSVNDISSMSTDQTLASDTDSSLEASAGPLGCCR
Assay: Panel of 270 human kinases (Millipore)
Assay type: biochemical
experimental readout: inhibition at 1 µM (%)
Write the answer as a number in %, unit excluded.

| compound | experimental readout | obs value |
| --- | --- | --- |
| CC(C)[C@H](NC(=O)c1ccc2[nH]nc(-c3ccc(N4CCN(C5COC5)CC4)cc3)c2c1)c1ccccc1Cl | inhibition at 1 µM | 81 |

Form: compound = O=C(N[C@@H](c1ccccn1)C1CC1)c1ccc2[nH]nc(-c3ccc(N4C5CCC4CC(O)C5)cc3)c2c1 (stereo partly drawn) ; inhibition at 1 µM = 90

Form: compound = CC(C)[C@H](NC(=O)c1ccc2[nH]nc(-c3ccc(OC4CC5CCC(C4)N5C4COC4)cc3)c2c1)c1ccccc1Cl (stereo partly drawn) ; inhibition at 1 µM = 85

Form: compound = `CC(C)C[C@@H](NC(=O)c1ccc2[nH]nc(-c3ccc(N4CCN(C5COC5)CC4)cc3)c2c1)c1ccccc1Cl` ; inhibition at 1 µM = 48

Form: compound = `CC1=CC2(CCN(C)CC2)Oc2ccc(-c3n[nH]c4ccc(C(=O)N[C@H](c5ccccn5)C5CCCC5)cc34)cc21` ; inhibition at 1 µM = 59

Form: compound = `O=C(N[C@H](c1ccccn1)C1CCCC1)c1ccc2[nH]nc(-c3ccc(N4CCN(C5COC5)CC4)cc3)c2c1` ; inhibition at 1 µM = 81

----------
Biological target: cKit (V560G) (Homo sapiens, UniProt P10721, V560G)
Construct: purchased Millipore Corporation
Sequence (P10721 26-976 V560G): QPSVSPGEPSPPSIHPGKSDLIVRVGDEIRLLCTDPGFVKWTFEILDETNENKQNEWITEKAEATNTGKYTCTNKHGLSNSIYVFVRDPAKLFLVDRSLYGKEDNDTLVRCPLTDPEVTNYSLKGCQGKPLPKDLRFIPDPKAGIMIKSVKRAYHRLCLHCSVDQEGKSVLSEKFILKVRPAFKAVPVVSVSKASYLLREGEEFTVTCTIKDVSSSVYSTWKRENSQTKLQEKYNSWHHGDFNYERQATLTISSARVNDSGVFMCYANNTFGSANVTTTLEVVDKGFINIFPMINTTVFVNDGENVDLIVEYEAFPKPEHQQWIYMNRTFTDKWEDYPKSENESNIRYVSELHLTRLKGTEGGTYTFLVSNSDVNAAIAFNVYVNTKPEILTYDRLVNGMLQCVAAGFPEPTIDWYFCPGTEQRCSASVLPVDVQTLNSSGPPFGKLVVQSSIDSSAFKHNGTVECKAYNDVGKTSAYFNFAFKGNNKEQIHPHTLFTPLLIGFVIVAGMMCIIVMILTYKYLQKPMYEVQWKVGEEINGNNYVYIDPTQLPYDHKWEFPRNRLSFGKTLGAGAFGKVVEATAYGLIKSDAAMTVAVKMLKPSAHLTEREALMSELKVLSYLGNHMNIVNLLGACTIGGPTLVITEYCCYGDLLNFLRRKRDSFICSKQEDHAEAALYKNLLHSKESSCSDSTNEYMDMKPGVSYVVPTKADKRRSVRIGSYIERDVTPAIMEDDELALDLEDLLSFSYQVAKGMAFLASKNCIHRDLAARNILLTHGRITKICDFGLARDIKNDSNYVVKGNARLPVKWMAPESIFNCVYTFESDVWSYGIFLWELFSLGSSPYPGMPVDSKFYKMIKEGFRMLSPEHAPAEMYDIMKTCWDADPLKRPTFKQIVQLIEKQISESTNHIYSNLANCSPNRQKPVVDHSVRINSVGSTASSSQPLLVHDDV
Test: Panel of 270 human kinases (Millipore)
Format: biochemical
Outcome label depends on inhibition at 1 µM relative to 70%: at/above gives 1, below gives -1.

These solved cases illustrate the format of a correct answer.
| compound | class label |
| --- | --- |
| CC(C)[C@H](NC(=O)c1ccc2[nH]nc(-c3ccc(OC4CC5CCC(C4)N5C4COC4)cc3)c2c1)c1ccccc1Cl (stereo partly drawn) | -1 |
| CC(C)C[C@@H](NC(=O)c1ccc2[nH]nc(-c3ccc(N4CCN(C5COC5)CC4)cc3)c2c1)c1ccccc1Cl | 1 |
| CC1=CC2(CCN(C)CC2)Oc2ccc(-c3n[nH]c4ccc(C(=O)N[C@H](c5ccccn5)C5CCCC5)cc34)cc21 | 1 |
| CC(C)[C@H](NC(=O)c1ccc2[nH]nc(-c3ccc(N4CCN(C5COC5)CC4)cc3)c2c1)c1ccccc1Cl | -1 |
| O=C(N[C@H](c1ccccn1)C1CCCC1)c1ccc2[nH]nc(-c3ccc(N4CCN(C5COC5)CC4)cc3)c2c1 | 1 |

Note: attention shifts to another entry.
Task: Item O=C(N[C@@H](c1ccccn1)C1CC1)c1ccc2[nH]nc(-c3ccc(N4C5CCC4CC(O)C5)cc3)c2c1 (stereo partly drawn) with inhibition at 1 µM of 70% or above?
Result: -1

----------
Attribute: pIC50
Molecular target: human TTK (Homo sapiens, UniProt P33981)
Construct: amino terminal GST fusion of full length human TTK; purchased Invitrogen
Sequence (P33981 whole entry, the tested form may be a part): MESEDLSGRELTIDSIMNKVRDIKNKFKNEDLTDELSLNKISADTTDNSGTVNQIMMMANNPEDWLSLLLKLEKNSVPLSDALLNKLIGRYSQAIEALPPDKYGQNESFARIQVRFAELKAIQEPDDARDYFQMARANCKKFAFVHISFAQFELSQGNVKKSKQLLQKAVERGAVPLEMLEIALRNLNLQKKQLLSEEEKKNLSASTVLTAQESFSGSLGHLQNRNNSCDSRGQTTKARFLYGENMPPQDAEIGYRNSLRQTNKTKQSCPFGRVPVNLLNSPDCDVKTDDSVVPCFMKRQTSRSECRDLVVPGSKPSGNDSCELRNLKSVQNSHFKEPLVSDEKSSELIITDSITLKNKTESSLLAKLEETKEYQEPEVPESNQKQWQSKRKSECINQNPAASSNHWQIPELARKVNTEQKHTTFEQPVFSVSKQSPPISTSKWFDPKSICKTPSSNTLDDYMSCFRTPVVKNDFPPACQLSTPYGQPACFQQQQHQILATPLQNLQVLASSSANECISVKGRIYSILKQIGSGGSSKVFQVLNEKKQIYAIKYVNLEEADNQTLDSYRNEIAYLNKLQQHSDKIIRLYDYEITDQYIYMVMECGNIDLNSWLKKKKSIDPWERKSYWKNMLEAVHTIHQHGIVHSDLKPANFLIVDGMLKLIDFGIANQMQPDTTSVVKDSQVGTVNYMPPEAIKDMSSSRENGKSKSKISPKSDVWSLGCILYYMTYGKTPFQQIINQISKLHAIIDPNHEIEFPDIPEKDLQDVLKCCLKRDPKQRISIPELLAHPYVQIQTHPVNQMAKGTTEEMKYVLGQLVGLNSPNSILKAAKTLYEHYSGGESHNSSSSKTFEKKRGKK
Test: TTK inhibition assay (indirect ELISA)
Assay type: biochemical
Conditions: read-out: TTK IC50 Range
pIC50: −log10 of the molar value.

| molecule | target of assay | pIC50 |
| --- | --- | --- |
| O=C(Nc1ccc2[nH]nc(-c3ccc(N4CCOCC4)nc3)c2c1)C(c1ccsc1)N1CCCC1 (centres unmarked) [Example A52] | human TTK (Homo sapiens, UniProt P33981) | > 7.00 |
| O=C(N[C@H](c1ccccn1)C1CCCC1)c1ccc2[nH]nc(-c3ccc(N4C5CCC4CC(O)C5)cc3)c2c1 (some centres unmarked) [Example A513] | human TTK (Homo sapiens, UniProt P33981) | > 7.00 |
| CC(C)[C@H](NC(=O)c1ccc2[nH]nc(-c3ccc(OC4CCN(C5COC5)CC4)cc3)c2c1)c1ccccc1Cl [Example A332] | human TTK (Homo sapiens, UniProt P33981) | > 7.00 |
| Cc1cc(=O)n(C)c2ccc(-c3n[nH]c4ccc(C(=O)N[C@H](c5ccccn5)C5CC5)cc34)cc12 [Example A238] | human TTK (Homo sapiens, UniProt P33981) | > 7.00 |
| O=C(NCC1(c2ccncc2)CC1)c1ccc2[nH]nc(-c3ccc(N4CCOCC4)cc3)c2c1 [Example A464] | human TTK (Homo sapiens, UniProt P33981) | 6.30 to 7.00 |

Form: molecule = CN1CCC2(CCc3cc(-c4n[nH]c5ccc(C(=O)N[C@H](c6ccccn6)C6CCCC6)cc45)ccc3O2)CC1 [Example A253] ; pIC50 = > 7.00

Form: molecule = O=C(N[C@H](CCO)c1ccccc1)c1ccc2[nH]nc(-c3ccc(N4[C@@H]5CC[C@H]4COC5)cc3)c2c1 [Example A423] ; pIC50 = > 7.00

Form: molecule = CN1CCC(=O)c2cc(-c3n[nH]c4ccc(C(=O)N[C@H](c5ccccn5)C5CCCC5)cc34)ccc21 [Example A242] ; pIC50 = > 7.00

Form: molecule = O=C(NCC1(N2CCOCC2)CCCCC1)c1ccc2[nH]nc(-c3ccc(N4CCN(C5COC5)CC4)cc3)c2c1 [Example A500] ; pIC50 = > 7.00

Form: molecule = O=CN1CCC(Oc2ccc(-c3n[nH]c4ccc(C(=O)NC(c5ccsc5)C5CCC5)cc34)cc2)CC1 (centres unmarked) [Example A330] ; pIC50 = > 7.00

Form: molecule = CN1[C@@H]2CC[C@H]1C[C@@H](Oc1ccc(-c3n[nH]c4ccc(C(=O)NC(c5ccsc5)C5CCC5)cc34)cc1)C2 (some centres unmarked) [Example A283] ; pIC50 = > 7.00

----------
Molecular target: MELK (Homo sapiens, UniProt Q14680)
Construct: purchased Millipore Corporation
Sequence (Q14680 whole entry): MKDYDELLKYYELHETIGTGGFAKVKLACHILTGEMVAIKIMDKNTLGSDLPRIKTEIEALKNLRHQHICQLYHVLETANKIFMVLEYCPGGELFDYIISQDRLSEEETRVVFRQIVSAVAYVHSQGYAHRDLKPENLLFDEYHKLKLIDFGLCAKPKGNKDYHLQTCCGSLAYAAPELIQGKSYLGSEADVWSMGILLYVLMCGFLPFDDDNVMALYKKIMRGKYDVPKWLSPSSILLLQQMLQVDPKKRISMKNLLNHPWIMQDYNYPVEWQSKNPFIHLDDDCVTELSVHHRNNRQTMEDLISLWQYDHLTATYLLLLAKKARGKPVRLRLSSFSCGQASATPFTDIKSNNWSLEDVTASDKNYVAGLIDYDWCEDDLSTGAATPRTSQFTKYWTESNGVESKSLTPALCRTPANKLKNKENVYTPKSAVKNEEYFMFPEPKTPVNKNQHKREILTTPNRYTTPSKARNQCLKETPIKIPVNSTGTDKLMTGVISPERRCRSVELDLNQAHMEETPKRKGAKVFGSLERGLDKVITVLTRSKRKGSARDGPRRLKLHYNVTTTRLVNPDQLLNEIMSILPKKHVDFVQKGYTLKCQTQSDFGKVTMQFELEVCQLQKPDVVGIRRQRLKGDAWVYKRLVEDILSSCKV
Test: Panel of 270 human kinases (Millipore)
Format: biochemical
experimental readout: inhibition at 1 µM (%)
Write the answer as a number in %, unit excluded.

| compound | inhibition at 1 µM [%] |
| --- | --- |
| CC(C)[C@H](NC(=O)c1ccc2[nH]nc(-c3ccc(N4CCN(C5COC5)CC4)cc3)c2c1)c1ccccc1Cl [Example A405] | 92 |

Form: compound = O=C(N[C@@H](c1ccccn1)C1CC1)c1ccc2[nH]nc(-c3ccc(N4C5CCC4CC(O)C5)cc3)c2c1 (stereo partly drawn) [Example A363] ; inhibition at 1 µM = 80

Form: compound = CC(C)[C@H](NC(=O)c1ccc2[nH]nc(-c3ccc(OC4CC5CCC(C4)N5C4COC4)cc3)c2c1)c1ccccc1Cl (stereo partly drawn) [Example A335] ; inhibition at 1 µM = 97

----------
Target: human TTK (Homo sapiens, UniProt P33981)
Construct: amino terminal GST fusion of full length human TTK; purchased Invitrogen
Assay: TTK inhibition assay (indirect ELISA)
Assay type: biochemical
Conditions: read-out: TTK IC50 Range
pIC50: −log10 of the molar value.
Attribute: pIC50

Would you please look over these solved cases?
| molecule | pIC50 |
| --- | --- |
| O=C(NC(c1ccccc1Cl)C1CCC1)c1ccc2[nH]nc(-c3ccc(N4CCN(C5COC5)CC4)cc3)c2c1 (stereo not shown) | > 7.00 |
| O=CN1[C@@H]2CC[C@H]1C[C@@H](Oc1ccc(-c3n[nH]c4ccc(C(=O)NC(c5ccsc5)C5CCC5)cc34)cc1)C2 (stereo partly shown) | > 7.00 |
| CC(C)C(NC(=O)c1ccc2[nH]nc(-c3ccc(OC4CN(C)C4)cc3)c2c1)c1ccccc1Cl (stereo not shown) | > 7.00 |

Form: molecule = CC(C)C(NC(=O)c1ccc2[nH]nc(-c3ccc(OC4CCN(C5COC5)CC4)cc3)c2c1)c1ccccn1 (stereo not shown) ; pIC50 = > 7.00

Form: molecule = `CN1CCC(Oc2ccc(-c3n[nH]c4ccc(C(=O)NCC5(c6ccncc6)CCOCC5)cc34)cc2)CC1` ; pIC50 = > 7.00

Form: molecule = CN1CCC(Oc2ccc(-c3n[nH]c4ccc(C(=O)NC(c5ccccn5)C5CCCCC5)cc34)cc2)CC1 (stereo not shown) ; pIC50 = > 7.00

Form: molecule = O=C(Nc1ccc2[nH]nc(-c3ccc(NC4CCC(O)CC4)cc3)c2c1)C(c1ccsc1)N1CCCC1 (single isomer, unassigned) ; pIC50 = > 7.00

----------
Target: human TTK (Homo sapiens)
Construct: amino terminal GST fusion of full length human TTK; purchased Invitrogen
Assay: TTK inhibition assay (indirect ELISA)
Format: biochemical
Conditions: read-out: TTK IC50 Range
pIC50: −log10 of the molar value.
Attribute: pIC50

Would you please look over these solved cases?
| molecule | pIC50 |
| --- | --- |
| CC(C)[C@H](NC(=O)c1ccc2[nH]nc(-c3ccc(OC4CC5CCC(C4)N5CCO)cc3)c2c1)c1ccccc1Cl (stereo partly shown) | > 7.00 |
| O=C(NCC1(N2CCOCC2)CCCC1)c1ccc2[nH]nc(-c3ccc(OC4CCOCC4)cc3)c2c1 | 6.30 to 7.00 |
| O=C(NCC1(N2CCOCC2)CCCCC1)c1ccc2[nH]nc(-c3ccc(N4CC5CCC(C4)O5)cc3)c2c1 | > 7.00 |

Form: molecule = O=C(N[C@H](c1ccccn1)C1CCCC1)c1ccc2[nH]nc(-c3ccc(N4C5COCC4CC(O)C5)cc3)c2c1 (stereo partly shown) ; pIC50 = > 7.00
